- testedOn: human LPAR1 (Homo sapiens)
- Sequence (Q92633 whole entry): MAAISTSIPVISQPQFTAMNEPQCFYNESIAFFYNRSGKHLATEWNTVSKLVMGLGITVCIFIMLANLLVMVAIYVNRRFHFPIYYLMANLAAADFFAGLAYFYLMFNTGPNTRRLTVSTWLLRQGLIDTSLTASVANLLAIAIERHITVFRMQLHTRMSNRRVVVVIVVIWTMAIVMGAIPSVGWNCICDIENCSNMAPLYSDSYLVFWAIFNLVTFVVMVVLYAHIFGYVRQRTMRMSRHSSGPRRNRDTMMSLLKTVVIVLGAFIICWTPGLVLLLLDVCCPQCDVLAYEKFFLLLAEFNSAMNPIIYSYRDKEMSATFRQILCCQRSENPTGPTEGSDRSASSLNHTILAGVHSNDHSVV
- protocolText: In vitro functional assay of lysophosphatidic acid receptor 1 activity (calcium flux)
- Format: cell-based
- conditionParameters: LPAR1 IC50
Exercise: for every item that follows, state its recorded IC50.

Some compounds with known IC50 results, for comparison:
• COC(=O)c1cc(Br)cnc1NC(=O)N(c1ccccc1C(C)C)C1CCN(C(C)=O)CC1 = 0.1 to 1 µM
• COc1ccc(NC(=O)N(c2ccccc2C(C)C)[C@@H]2C[C@H]3CC[C@@H](C2)N3C(C)=O)c(OC(F)F)n1 [Example 55] = 0.1 to 1 µM
• COC(=O)N1CCC(N(C(=O)Nc2ccc(OC)nc2OC(F)F)c2ccccc2C(C)C)CC1 = 0.01 to 0.1 µM

I'm hoping you can list IC50 for every compound here, please.
1. COc1ccc(NC(=O)N(c2cccc(C)c2C)C2CCN(C(C)=O)CC2)c(OC(F)F)n1
2. COc1ccc(NC(=O)N(c2ccccc2C(C)C)C2CCN(C(=O)CC#N)CC2)c(OC(F)F)n1
3. CC(=O)N1CCC(N(C(=O)Nc2ccc(C)nc2OC(F)F)c2cnccc2C(C)C)CC1

1. 0.1 to 1 µM
2. 0.01 to 0.1 µM
3. 0.1 to 1 µM

====

- testedOn: human LPAR1 (Homo sapiens)
- protocolText: In vitro functional assay of lysophosphatidic acid receptor 1 activity (calcium flux)
- Type: cell-based
- conditionParameters: B103 cells stably expressing human LPAR1; calcium flux (Fluo-4 NW) after lysophosphatidic acid (18:1) at EC80; 100 pM to 10 μM; read-out: LPAR1 IC50
Exercise: for every item that follows, state its recorded IC50.

Some molecules with known IC50 results, for comparison:
- Cc1ccc(NC(=O)N(c2ccccc2C(C)C)[C@H]2CCN(C(=O)Cn3nccn3)C2)c(OC(F)F)n1 [Example 83]: 100 to 1000 nM
- Cc1ccc(NC(=O)N(c2ccccc2C(C)C)[C@@H]2CC[C@H](C(=O)O)C2)c(OC(F)F)n1 [Example 302]: 10 to 100 nM
- Cc1ccc(NC(=O)N(C[C@@H]2CCN2C(=O)OC(C)(C)C)c2ccccc2C(C)C)c(OC(F)F)n1 [Example 12]: > 1000 nM
- COc1ccc(NC(=O)N(c2ccccc2C(C)C)[C@H]2C[C@](O)(C(F)(F)C(=O)O)C2)c(OC(F)F)n1 [Example 324]: < 10 nM
- COc1ccc(NC(=O)N(c2ccccc2C(C)C)C2CCC(=O)CC2)c(OC(F)F)n1 [Example 276]: 100 to 1000 nM

I'm hoping you can list IC50 for every molecule here, please.
1. Cc1ccc(NC(=O)N(c2ccccc2C(C)C)[C@H]2C[C@H](CC(N)=O)C2)c(OC(F)F)n1 [Example 188]
2. Cc1ccc(NC(=O)N(c2ccccc2C(C)C)[C@H]2CC[C@@H](S(C)(=O)=O)CC2)c(OC(F)F)n1 [Example 255]
3. CC(C)c1ccccc1N(C(=O)Nc1ccc(Cl)cn1)[C@H]1C[C@@H](CC(=O)O)C1 [Example 306]

["100 to 1000 nM", "10 to 100 nM", "100 to 1000 nM"]

====

- testedOn: UniProtKB Q92633
- protocolText: In vitro functional assay of lysophosphatidic acid receptor 1 activity (calcium flux)
- Assay type: cell-based
- conditionParameters: B103 cells stably expressing human LPAR1; calcium flux (Fluo-4 NW) after lysophosphatidic acid (18:1) at EC80; 100 pM to 10 μM; read-out: LPAR1 IC50
pIC50: −log10 of the molar value.
Exercise: for every item that follows, state its recorded pIC50.

• Cc1nc(OC(F)F)c(NC(=O)N(c2ccccc2C(C)C)[C@H]2CC[C@@H](CC(=O)O)CC2)cc1F = 7.00 to 8.00

I'm hoping you can list pIC50 for every compound here, please.
1. Cc1ccc(NC(=O)N(c2ccccc2C(C)C)[C@H]2C[C@@H](OCc3ccccc3)C2)c(OC(F)F)n1
2. Cc1ccc(NC(=O)N(c2ccccc2C(C)C)[C@H]2CC[C@@](C)(C(=O)O)CC2)c(OC(F)F)n1
3. CC(=O)NC1CC(N(C(=O)Nc2ccc(C)nc2OC(F)F)c2ccccc2C(C)C)C1 (centres unmarked)
4. CC(=O)N1CC[C@H](N(C(=O)Nc2ccc(C)nc2OC(F)F)c2ccccc2C(C)C)C1
5. COc1ccc(NC(=O)N(c2ccccc2C(C)C)C2CCCN(C)C2=O)c(OC(F)F)n1 (centres unmarked)
6. COc1ccc(NC(=O)N(c2ccccc2C(C)C)[C@H]2CC[C@@H](S(C)(=O)=O)CC2)c(OC(F)F)n1
7. COc1ccc(NC(=O)N(c2ccccc2C(C)CO)[C@H]2CC[C@H](C(=O)O)CC2)c(OC(F)F)n1 (some centres unmarked)
8. Cc1ccc(NC(=O)N(c2ccccc2C(C)C)C2CN(C3COC3)C2)c(OC(F)F)n1

1: < 6.00; 2: 6.00 to 7.00; 3: 6.00 to 7.00; 4: 7.00 to 8.00; 5: 6.00 to 7.00; 6: > 8.00; 7: 6.00 to 7.00; 8: 6.00 to 7.00

I'm hoping you can list pIC50 for every compound here, please.
1. Cc1ccc(NC(=O)N(c2ccccc2C(C)C)[C@H]2C[C@@H](CC#N)C2)c(OC(F)F)n1
2. CC(C)c1ccccc1N(C(=O)Nc1cc(F)c(C2CC2)nc1OC(F)F)[C@H]1CC[C@H](C(=O)O)CC1

1: 7.00 to 8.00; 2: 7.00 to 8.00
